Read-out: Paternally Expressed 10 (PEG10), PEG10 (gene 23089)
Assay comment: LTEA_HepaRG_PEG10: Life Technologies and Expression Analysis (LTEA) Assay for Paternally Expressed 10 (PEG10) using HepaRG (AID 2283520)
Protocol conditions: mRNA level, 48 h; actives raise or lower the signal
Activity calls are given as the source filed them. The calls were made as follows: active = hit-call score of the fitted dose curve at least 0.9, where 1 is the maximum; inactive = score below 0.9.
Please answer using one outcome listed in yes = active, no = inactive

// known answers, use as guide
| Compound | Category label |
| --- | --- |
| O=C1NC(=O)C(c2ccccc2)(c2ccccc2)N1 | no |
| Oc1ccccc1O | no |
| Cc1occc(=O)c1O | no |
| CC(C)c1cccc(C(C)C)c1 | no |
| O=C(NS(=O)(=O)/C=C/c1cccs1)c1ccc(F)cc1Br | yes |

Field: outcome | Entry: C=CCCCCCCCCCCCC
no

Field: outcome | Entry: CN(C)CCCN(C)CCCN(C)C
no

Field: outcome | Entry: CCCCOC(=O)CCCCC(=O)OCCCC
no

Field: outcome | Entry: COc1ccc(OC(F)(F)F)cc1CN[C@H]1CCCN[C@H]1c1ccccc1
yes

Field: outcome | Entry: NCCOCCOCCN
no

Field: outcome | Entry: CCCCCCC(CCCCCCCCCCC(=O)OCC(COC(C)=O)OC(C)=O)OC(C)=O (centres undefined)
no

---

Assay comment: ATG_M_19_CIS: Attagene CIS-FACTORIAL HepG2 Assay for M19 Transcription Factor (Internal Marker) (AID 2282939)
Protocol conditions: HepG2 Attagene CIS-FACTORIAL M19 internal marker reporter; actives raise or lower the signal
Calls of active or inactive are those of the source. How the source made its calls: active means hit-call score of the fitted dose curve at least 0.9, where 1 is the maximum; inactive means score below 0.9.
Measured metric: outcome

Before answering, review these 5 worked examples.
| Smiles string | Result |
| --- | --- |
| Nc1nc(Cl)nc2c1ncn2[C@H]1C[C@H](O)[C@@H](CO)O1 | inactive |
| Cc1cc(Cc2ccc(N)c(C)c2)ccc1N | inactive |
| CC(C)COC(=O)CCCCC(=O)OCC(C)C | inactive |
| CCCCCCCC(=O)OC | inactive |
| S=c1[nH]c2ccccc2s1 | inactive |

Record outcome per entry; entries follow.
1. NC1CCCCC1
2. CCCCCCC(C=O)=Cc1ccccc1
3. O=C1NC(=O)C(c2ccccc2)(c2ccccc2)N1
4. C=CCCCCCCCCCCCC

inactive
inactive
inactive
inactive

Record outcome per entry; entries follow.
1. Cc1ccc(-c2cc(C(F)(F)F)nn2-c2ccc(S(N)(=O)=O)cc2)cc1
2. CCCCCCCCCC[N+](C)(C)[O-]
3. CCCCCCCCCCCCCCCCO

1. inactive
2. inactive
3. inactive

Record outcome per entry; entries follow.
1. Cc1cn([C@H]2C=C[C@@H](CO)O2)c(=O)[nH]c1=O
2. CC(C)c1cccc(C(C)C)c1

inactive
inactive

---

Test system: human Phosphodiesterase 5 (PDE5), PDE5A (gene 8654) (UniProt O76074)
Assay comment: NVS_ENZ_hPDE5: NovaScreen (NVS) Enzymatic Assay for human Phosphodiesterase 5 (PDE5) (AID 2283194)
Experimental: NVS_ENZ_hPDE5 is a biochemical, single-readout assay that uses extracted gene-proteins in a cell-free assay. Measurements were taken 1 hour after chemical dosing in a 384-well plate.NVS_ENZ_hPDE5 is one of one assay component(s) measured or calculated from the NVS_ENZ_hPDE5 assay. […] This assay endpoint, NVS_ENZ_hPDE5, was analyzed in the positive analysis fitting direction relative to DMSO as the negative control and baseline of activity. […]
Records with an inconclusive call do not appear. The source made the active and inactive calls. Rule for the calls: active = hit-call score of the fitted dose curve at least 0.9, where 1 is the maximum; inconclusive = response in the unintended direction; inactive = score below 0.9.
Please answer using one outcome listed in true (1) (active), false (0) (inactive)

// known answers, use as guide
| Smiles string | Category label |
| --- | --- |
| CC1(C)C(=O)NC(=O)N1CO | false (0) |
| CN(C)C(=O)NC1(c2ccccc2)CCN(CC[C@@]2(c3ccc(F)c(F)c3)CN(C(=O)c3ccccc3)CCO2)CC1 | true (1) |
| COc1ccc(OC(F)(F)F)cc1CN[C@H]1CCCN[C@H]1c1ccccc1 | false (0) |

Field: outcome | Entry: CC(N)=O
false (0)

Field: outcome | Entry: CCCCc1nc2cccnc2n1Cc1ccc(-c2ccccc2-c2nnn[nH]2)cc1
true (1)

---

Test system: rat Serotonin Transporter (SERT), Slc6a4 (gene 25553)
Assay comment: NVS_TR_rSERT: NovaScreen (NVS) Transporter Assay for rat Serotonin Transporter (SERT) (AID 2283375)
Inconclusive results are not listed. Active and inactive are the calls of the source. The calls were made as follows: active = hit-call score of the fitted dose curve at least 0.9, where 1 is the maximum; inconclusive = response in the unintended direction; inactive = score below 0.9.
Please answer using one outcome listed in active, inactive

| Smiles string | Category label |
| --- | --- |
| CN(C)CCCN1c2ccccc2Sc2ccc(Cl)cc21 | active |
| O=C(N[C@@H](c1ccccc1)[C@@H]1CCCCN1)c1cccc(C(F)(F)F)c1Cl | active |
| Cc1cc(SC2=C(O)C[C@@](CCc3ccc(N)cc3)(C(C)C)OC2=O)c(C(C)(C)C)cc1CO | inactive |

Next:
Field: outcome | Entry: COc1ccc(OC(F)(F)F)cc1CN[C@H]1CCCN[C@H]1c1ccccc1
active

---

Read-out: Monocyte Chemoattractant Protein-1 (MCP1), CCL2 (gene 6347)
Assay comment: BSK_3C_MCP1: BioMAP Diversity Plus: 3C Assay for Monocyte Chemoattractant Protein-1 (MCP1) Biomarker Activity (AID 2283017)
Protocol conditions: primary human endothelial cells (HUVEC); actives raise or lower the signal
Active and inactive are the calls of the source. Rule for the calls: active = hit-call score of the fitted dose curve at least 0.9, where 1 is the maximum; inactive = score below 0.9.
Please answer using one outcome listed in active, inactive

// known answers, use as guide
| Molecule | Category label |
| --- | --- |
| CCCCc1nc2cccnc2n1Cc1ccc(-c2ccccc2-c2nnn[nH]2)cc1 | inactive |
| O=C1c2c(O)cccc2Cc2cccc(O)c21 | inactive |
| O=C1O[C@H]([C@H](O)CO)C(O)=C1O | inactive |
| c1ccc2occc2c1 | inactive |
| O=C(O)CN(CC(=O)O)CC(=O)O | inactive |

Field: outcome | Entry: O=C(N[C@@H](c1ccccc1)[C@@H]1CCCCN1)c1cccc(C(F)(F)F)c1Cl
active

Field: outcome | Entry: CO[C@@H]1COCC[C@@H]1N[C@@H]1CC[C@@](C(=O)N2CCc3ncc(C(F)(F)F)cc3C2)(C(C)C)C1
inactive

Field: outcome | Entry: CCCC(=O)O
inactive

Field: outcome | Entry: CC(=O)O[C@]1(C(C)=O)CC[C@H]2[C@@H]3C=C(Cl)C4=CC(=O)[C@@H]5C[C@@H]5[C@]4(C)[C@H]3CC[C@@]21C
inactive

Field: outcome | Entry: CC(N)=O
inactive

---

Test system: X-box-binding protein 1 (Homo sapiens) (UniProt P17861)
Sequence (P17861 whole entry, looked up): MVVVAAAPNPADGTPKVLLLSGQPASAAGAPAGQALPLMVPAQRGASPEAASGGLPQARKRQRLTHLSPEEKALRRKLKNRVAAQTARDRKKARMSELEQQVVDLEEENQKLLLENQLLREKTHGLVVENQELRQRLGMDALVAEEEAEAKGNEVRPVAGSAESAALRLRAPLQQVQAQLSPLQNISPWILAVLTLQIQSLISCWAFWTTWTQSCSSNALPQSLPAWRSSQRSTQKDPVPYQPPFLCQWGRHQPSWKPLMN
Assay comment: ATG_Xbp1_CIS: Attagene CIS-FACTORIAL HepG2 Assay for human X-box Binding Protein 1 (XBP1) (AID 2282972)
Protocol conditions: HepG2 XBP1 cis-element reporter, Attagene multiplex; actives raise or lower the signal
Calls of active or inactive are those of the source. How the source made its calls: active means hit-call score of the fitted dose curve at least 0.9, where 1 is the maximum; inactive means score below 0.9.
Please answer using one outcome listed in 1 (active), -1 (inactive)

| Compound | Test system | Category label |
| --- | --- | --- |
| Cc1occc(=O)c1O | X-box-binding protein 1 (Homo sapiens) (UniProt P17861) | -1 |
| CCc1nc(N)nc(N)c1-c1ccc(Cl)cc1 | X-box-binding protein 1 (Homo sapiens) (UniProt P17861) | 1 |
| CC(C)NCC(O)c1ccc(O)c(O)c1 (configuration not stated) | X-box-binding protein 1 (Homo sapiens) (UniProt P17861) | -1 |
| CC(C)(O)c1ccc(CNC(=O)c2cccnc2Oc2ccc(F)cc2)cc1 | X-box-binding protein 1 (Homo sapiens) (UniProt P17861) | -1 |

Field: outcome | Entry: Nc1nc(Cl)nc2c1ncn2[C@H]1C[C@H](O)[C@@H](CO)O1
-1

Field: outcome | Entry: CCCCCCCCCCCCCCOS(=O)(=O)O
-1

Field: outcome | Entry: CC(=O)O
-1

Field: outcome | Entry: Cc1ccc(-c2cc(C(F)(F)F)nn2-c2ccc(S(N)(=O)=O)cc2)cc1
-1

Field: outcome | Entry: CCC(C)N(C)C(=O)c1cc2ccccc2c(-c2ccccc2Cl)n1 (configuration not stated)
-1

---

Assay comment: BSK_4H_Eotaxin3: BioMAP Diversity Plus: 4H Assay for Eotaxin 3 Biomarker Activity (AID 2283000);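 as to outcome: CCL26 protein level quantified by ELISA in parallel with SRB cytotoxicity check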
Protocol conditions: primary human endothelial cells (HUVEC); actives raise or lower the signal
Active and inactive are the calls of the source. How the source made its calls: active means hit-call score of the fitted dose curve at least 0.9, where 1 is the maximum; inactive means score below 0.9.
Please answer using one outcome listed in active, inactive

// known answers, use as guide
| Molecule | Category label |
| --- | --- |
| Oc1ccc(O)cc1 | active |
| O=C1c2c(O)cccc2Cc2cccc(O)c21 | inactive |
| O=C(O)CN(CC(=O)O)CC(=O)O | inactive |
| CCCCC(CC)COC(=O)CCCCCCCC(=O)OCC(CC)CCCC (configuration not stated) | inactive |
| CC(=O)[C@@]1(O)CC[C@H]2[C@@H]3CCC4=CC(=O)CC[C@]4(C)[C@H]3CC[C@@]21C | inactive |
| C=CCc1ccc(OC)c(OC)c1 | inactive |

Next:
Field: outcome | Entry: O=C(O)CC(O)(CC(=O)O)C(=O)O
inactive
